Target: CDK7/Cyclin H/MAT1 kinase (Homo sapiens (Human))
Assay: Enzyme activity test, mobility shift assay (Table 1)
Type: biochemical
Settings: 2 mM ATP; pre-incubated 0 and 60 minutes
Provide the recorded IC50 for the entries that follow.

Would you kindly share the measured IC50 for COC(=O)Nc1ccc2c(-c3nc(N[C@H]4CC[C@H](C)NC4)ncc3C(F)(F)F)c[nH]c2c1OCC(F)(F)F ?
50 to 500 nM

Another compound to look at: COC(=O)Nc1ccc2c(-c3nc(N[C@H]4CCC5(CC5)NC4)ncc3C(F)(F)F)c[nH]c2c1C(C)(F)F
< 50 nM

Another compound to look at: COC(=O)Nc1ccc2c(-c3nc(N[C@H]4CC[C@H](C)NC4)ncc3C(F)(F)F)c[nH]c2c1OC
50 to 500 nM

Another compound to look at: COC(=O)Nc1ccc2c(-c3nc(N[C@H]4CCC5(CC5)NC4)ncc3C(F)(F)F)c[nH]c2c1C(C)=O
< 50 nM

Another compound to look at: COC(=O)Nc1ccc2c(-c3nc(N[C@H]4CCCNC4)ncc3C(C)C)c[nH]c2c1Br
50 to 500 nM

Another compound to look at: COC(=O)Nc1ccc2c(-c3nc(N[C@H]4CCCNC4)ncc3C(F)(F)F)c[nH]c2c1OC(F)(F)F
< 50 nM

Another compound to look at: COC(=O)Nc1ccc2c(-c3nc(N[C@H]4CCC(C)(C)NC4)ncc3C(F)(F)F)c[nH]c2c1CC(F)(F)F
< 50 nM

Another compound to look at: COC(=O)Nc1ccc2c(-c3nc(N[C@H]4CCCNC4)ncc3Br)c[nH]c2c1Br
< 50 nM

Another compound to look at: COC(=O)Nc1ccc2c(-c3nc(N[C@H]4CC[C@H](C)NC4)ncc3C(F)(F)F)c[nH]c2c1Br
50 to 500 nM

Another compound to look at: CN(C)C(=O)Oc1ccc2c(-c3nc(N[C@H]4CCC(C)(C)NC4)ncc3C(F)(F)F)c[nH]c2c1
50 to 500 nM

Another compound to look at: COC(=O)Nc1ccc2c(-c3nc(N[C@H]4CCC5(CC5)NC4)ncc3C(F)(F)F)c[nH]c2c1OC(F)F
< 50 nM

Another compound to look at: CCN[C@H]1CCC[C@@H]1Nc1ncc(C(F)(F)F)c(-c2c[nH]c3c(C(F)(F)F)c(NC(=O)OC)ccc23)n1
< 50 nM

Another compound to look at: COC(=O)Nc1ccc2c(-c3nc(N[C@H]4CCC[C@H](O)C4)ncc3C(F)(F)F)c[nH]c2c1Br [Example T-30]
> 500 nM

Another compound to look at: COCCOC(=O)Nc1ccc2c(-c3nc(N[C@H]4CCCNC4)ncc3C(F)(F)F)c[nH]c2c1Br
< 50 nM

Another compound to look at: COC(=O)N(C)c1ccc2c(-c3nc(N[C@H]4CCCNC4)ncc3C(F)(F)F)c[nH]c2c1C(C)(F)F
< 50 nM

Another compound to look at: COC(=O)Nc1ccc2c(-c3nc(N[C@@H]4CCC[C@@H]4N)ncc3C(F)(F)F)c[nH]c2c1Br
50 to 500 nM

Another compound to look at: COC(=O)Nc1ccc2c(-c3nc(N[C@H]4CCCN(C)C4)ncc3C(F)(F)F)c[nH]c2c1C(F)F
< 50 nM

Another compound to look at: CC(=O)Nc1ccc2c(-c3nc(N[C@H]4CCCNC4)ncc3C(F)(F)F)c[nH]c2c1
< 50 nM

Another compound to look at: COC(=O)Nc1ccc2c(-c3nc(N[C@@H]4[C@@H]5CNC[C@@H]54)ncc3C(F)(F)F)c[nH]c2c1Br
50 to 500 nM

Another compound to look at: COC(=O)Nc1ccc2c(-c3nc(N[C@H]4CCCN(C)C4)ncc3C(F)(F)F)c[nH]c2c1C(C)(F)F
< 50 nM

Another compound to look at: COC(=O)Nc1ccc2c(-c3nc(N[C@H]4CCCNC4)ncc3C(F)(F)F)c[nH]c2c1C1COC1
< 50 nM

Another compound to look at: O=C1OCCCN1c1ccc2c(-c3nc(N[C@H]4CCCNC4)ncc3C(F)(F)F)c[nH]c2c1Br
< 50 nM

Another compound to look at: COC(=O)Nc1ccc2c(-c3nc(N[C@H]4CCCNC4)ncc3C)c[nH]c2c1Br
< 50 nM

Another compound to look at: COC(=O)Nc1ccc2c(-c3nc(N[C@H]4CC[C@@H](C)NC4)ncc3C(F)(F)F)c[nH]c2c1C(F)(F)F
50 to 500 nM

Another compound to look at: COC(=O)Nc1ccc2c(-c3nc(N[C@@H]4CCNC4)ncc3C(F)(F)F)c[nH]c2c1Br
50 to 500 nM

Another compound to look at: CCOC(=O)Nc1ccc2c(-c3nc(N[C@H]4CCCNC4)ncc3C(F)(F)F)c[nH]c2c1C1CC1
< 50 nM

Another compound to look at: COC(=O)Nc1ccc2c(-c3nc(N[C@H]4CC[C@H](C)NC4)ncc3C(F)(F)F)c[nH]c2c1C1CC1
50 to 500 nM

Another compound to look at: COC(=O)N(C)c1ccc2c(-c3nc(N[C@H]4CCCNC4)ncc3C(F)(F)F)c[nH]c2c1OC
< 50 nM

###

Molecular target: CDK7/Cyclin H/MAT1 kinase (Homo sapiens (Human), UniProt P50613)
Sequence (P50613 whole entry): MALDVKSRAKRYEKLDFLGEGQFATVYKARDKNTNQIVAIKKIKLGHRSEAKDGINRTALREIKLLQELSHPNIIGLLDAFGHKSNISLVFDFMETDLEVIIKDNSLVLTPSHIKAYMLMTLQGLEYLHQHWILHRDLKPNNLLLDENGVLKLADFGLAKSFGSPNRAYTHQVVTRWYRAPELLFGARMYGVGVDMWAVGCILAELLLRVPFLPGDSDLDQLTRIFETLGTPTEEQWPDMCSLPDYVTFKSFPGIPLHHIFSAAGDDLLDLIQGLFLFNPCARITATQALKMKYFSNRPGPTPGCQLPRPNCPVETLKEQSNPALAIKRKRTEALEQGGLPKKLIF
Sequence (P51946 whole entry partner): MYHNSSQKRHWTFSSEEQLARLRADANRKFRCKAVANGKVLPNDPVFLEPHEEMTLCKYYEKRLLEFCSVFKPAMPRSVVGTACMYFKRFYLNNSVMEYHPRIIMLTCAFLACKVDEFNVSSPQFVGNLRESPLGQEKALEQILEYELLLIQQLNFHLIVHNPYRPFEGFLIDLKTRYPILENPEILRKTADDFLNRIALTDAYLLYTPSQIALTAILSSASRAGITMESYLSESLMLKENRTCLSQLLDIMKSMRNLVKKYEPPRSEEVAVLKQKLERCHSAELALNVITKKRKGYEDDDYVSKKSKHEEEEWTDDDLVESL
Sequence (P51948 whole entry partner): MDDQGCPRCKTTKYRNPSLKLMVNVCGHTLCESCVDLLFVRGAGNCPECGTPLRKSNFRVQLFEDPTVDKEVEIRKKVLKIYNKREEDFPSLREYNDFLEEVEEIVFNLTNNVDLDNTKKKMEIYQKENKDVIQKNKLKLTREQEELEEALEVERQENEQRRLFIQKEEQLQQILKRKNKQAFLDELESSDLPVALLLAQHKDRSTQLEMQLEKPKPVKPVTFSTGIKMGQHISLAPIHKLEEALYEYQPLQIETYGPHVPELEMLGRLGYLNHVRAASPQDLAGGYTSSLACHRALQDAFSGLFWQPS
Experiment: Enzyme activity test, mobility shift assay (Table 1)
Type: biochemical
Details: 2 mM ATP; pre-incubated 0 and 60 minutes
Observed Property: IC50

Would you kindly share the measured IC50 for COC(=O)Nc1ccc2c(-c3nc(N[C@H]4CCC(C)(C)NC4)ncc3C(F)(F)F)c[nH]c2c1OCC(F)(F)F [Example T-91] ?
< 50 nM

Another molecule to look at: COC(=O)Nc1ccc2c(-c3nc(N[C@H]4CCCNC4)ncc3C(F)(F)F)c[nH]c2c1C1CCOC1 (stereo partly shown) [Example T-83]
< 50 nM

Another molecule to look at: O=C1CCCN1c1ccc2c(-c3nc(N[C@H]4CCNC4)ncc3C(F)(F)F)c[nH]c2c1Br [Example T-47]
50 to 500 nM

Another molecule to look at: COC(=O)Nc1ccc2c(-c3nc(N[C@H]4CCC(C)(C)NC4)ncc3C(F)(F)F)c[nH]c2c1OC(C)C [Example T-94]
< 50 nM

###

Provide the recorded IC50 for the entries that follow.
Target: CDK7/Cyclin H/MAT1 kinase (Homo sapiens (Human), UniProt P50613)
Test: Enzyme activity test, mobility shift assay (Table 1)
Format: biochemical
Settings: 2 mM ATP; pre-incubated 0 and 60 minutes
Method: IC50 values of the compounds for CDK7 kinase were detected in Wuxi Biortus Biosciences Co. Ltd. The compound powder was dissolved in 100% DMSO to prepare a 10 mM storage solution. The storage solution was further diluted to 0.5 mM as the initial concentration, and continuously diluted 3 times to obtain 10 compound solutions with different concentrations. The compound and enzyme were pre-incubated for 0 minutes and 60 minutes, respectively, using duplicate detection. […]

Would you kindly share the measured IC50 for COC(=O)Nc1ccc2c(-c3nc(N[C@H]4CC[C@@H](C)NC4)ncc3C(F)(F)F)c[nH]c2c1OCC(F)(F)F ?
50 to 500 nM

Another compound to look at: COC(=O)Nc1ccc2c(-c3nc(N[C@H]4CCCNC4)ncc3C(F)(F)F)c[nH]c2c1-c1cnn(C)c1
< 50 nM

Another compound to look at: COC(=O)Nc1ccc2c(-c3nc(N[C@H]4CCCNC4)ncc3C(F)(F)F)c[nH]c2c1OC(F)F
< 50 nM

Another compound to look at: COC(=O)Nc1ccc2c(-c3nc(N[C@H]4CCCNC4)ncc3C(F)(F)F)c[nH]c2c1P(C)(C)=O
< 50 nM

###

Target: CDK7/Cyclin H/MAT1 kinase (Homo sapiens (Human), UniProt P50613)
Test: Enzyme activity test, mobility shift assay (Table 3)
Format: biochemical
Settings: 2 mM ATP, pre-incubated 0 and 60 minutes
Observed Property: IC50

# value lookup — system CDK7/Cyclin H/MAT1 kinase (Homo sapiens (Human), UniProt P50613), readout IC50, item CP(C)(=O)c1c(C#N)ccc2c(-c3nc(N[C@H]4CCC(=O)NC4)ncc3C(F)(F)F)c[nH]c12 [Example 48]
< 10 nM

Another compound to look at: Cc1cc(Nc2ncc(C(F)(F)F)c(-c3c[nH]c4c(P(C)(C)=O)c(C#N)ccc34)n2)n[nH]1 [Example 28]
< 10 nM

Another compound to look at: CC1(C)CC[C@H](Nc2ncc(C(F)(F)F)c(-c3c[nH]c4c(P(C)(C)=O)c(N5CCCCC5=O)ccc34)n2)CN1 [Example 02]
< 10 nM

Another compound to look at: CC1(C)CC[C@H](Nc2ncc(C(F)(F)F)c(-c3c[nH]c4c(P5(=O)CCCC5)c(C#N)ccc34)n2)CN1 [Example 01]
< 10 nM

Another compound to look at: COC(=O)N[C@H]1CCC[C@@H](Nc2ncc(C(F)(F)F)c(-c3c[nH]c4c(P(C)(C)=O)c(C#N)ccc34)n2)C1 [Example 66]
< 10 nM

Another compound to look at: CC1(C)CC[C@H](Nc2nc(-c3c[nH]c4c(P(C)(C)=O)c(C#N)ccc34)c3ccccc3n2)CN1 [Example 24]
10 to 500 nM

Another compound to look at: CC1(C)CC[C@H](Nc2ncc(C(F)(F)F)c(-n3cnc4c(P(C)(C)=O)c(C#N)ccc43)n2)CN1 [Example 31]
< 10 nM

Another compound to look at: CC1(C)CC[C@H](Nc2ncc(C(F)(F)F)c(-c3c[nH]c4c(P5(=O)CCCC5)nccc34)n2)CN1 [Example 14]
< 10 nM

Another compound to look at: COC(=O)Nc1ccc2c(-c3nc(N[C@H]4CCC(C)(C)NC4)ncc3C(F)(F)F)c[nH]c2c1P1(=O)CCCC1 [Example 20]
< 10 nM

Another compound to look at: Cc1cc(Nc2ncc(C(F)(F)F)c(-c3c[nH]c4cc(C#N)ccc34)n2)n[nH]1 [Example 12]
10 to 500 nM

Another compound to look at: CC1(C)CC[C@H](Nc2ncc(C(F)(F)F)c(-c3c[nH]c4c(S(=O)(=O)C5CCCC5)c(C#N)ccc34)n2)CN1 [Example 23]
< 10 nM

The reported numbers originate from patent US20230295130A1.
